tested on: Echinochloa crus-galli; test: Herbicidal activity against Echinochloa crus-galli (barnyard grass) assessed as inhibition of seedling growth at 100 ug/ml at 28 +/- 1 degC measured after 65 hr by cup test; type: functional
Answer class 0 if inhibition at 100 µg/mL is under 60%, and class 1 if it is 60% or more.

Record excerpt, results attached:
Cc1cc(C)cc(/C(O)=C2\C(=O)CN(C(C)C)C2=O)c1 = class 0
COc1ccc(/C(O)=C2\C(=O)CN(C(C)C)C2=O)cc1 = class 1
COCCOCOc1ccccc1/C(O)=C1\C(=O)CN(C(C)C)C1=O = class 0
CCOc1ccc(/C(O)=C2\C(=O)CN(C(C)C)C2=O)cc1 = class 1
COc1cc(/C(O)=C2\C(=O)CN(C(C)C)C2=O)cc(OC)c1OC = class 0

Request: hey, is inhibition at 100 µg/mL for this one >= 60%? CCCc1ccc(/C(O)=C2\C(=O)CN(C(C)C)C2=O)cc1
Result: class 0

Request: Decide: is the reported value of inhibition at 100 µg/mL for Cc1ccc(/C(O)=C2\C(=O)CN(C(C)(C)C)C2=O)cc1 equal to or greater than 60%?
Result: class 0

Request: Decide: inhibition at 100 µg/mL of Cc1cc(C)cc(/C(O)=C2\C(=O)CN(C3CC3)C2=O)c1 >= 60%?
Result: class 0

Request: Please indicate if the recorded inhibition at 100 µg/mL for CCOc1ccc(/C(O)=C2\C(=O)CN(C3CC3)C2=O)cc1 meets or exceeds 60%.
Result: class 1

Request: Exam item: decide whether the reported inhibition at 100 µg/mL for Cc1ccccc1/C(O)=C1\C(=O)CN(C(C)C)C1=O is at least 60%.
Result: class 1

* * *

Please go through the items and note down their inhibition at 10 µg/mL.
tested on: Brassica rapa subsp. oleifera; test: Herbicidal activity against Brassica rapa subsp. oleifera assessed as inhibition of root growth at 10 ug/ml at 28 +/- 1 degC measured after 65 hr by root test; type: functional
Give bare numbers, in %.

// known answers, use as guide
Cc1ccc(/C(O)=C2\C(=O)CN(C(C)C)C2=O)c(C)c1 = 10
CC(C)N1CC(=O)/C(=C(/O)c2cccc(Oc3ccccc3)c2)C1=O = 0
COc1cc(/C(O)=C2\C(=O)CN(C(C)C)C2=O)cc(OC)c1OC = 61

Hi there! I need inhibition at 10 µg/mL for each item below, if you can.
1. COCCOCOc1cccc(/C(O)=C2\C(=O)CN(C(C)C)C2=O)c1
2. Cc1cc(C)cc(/C(O)=C2\C(=O)CN(C(C)C)C2=O)c1
3. O=C1CN(C2CC2)C(=O)/C1=C(\O)c1cccc(Oc2ccccc2)c1
4. Cc1ccc(/C(O)=C2\C(=O)CN(C(C)(C)C)C2=O)cc1
5. CCCc1ccc(/C(O)=C2\C(=O)CN(C(C)C)C2=O)cc1

Result:
0
3
28
14
60

* * *

tested on: Amaranthus retroflexus; test: Herbicidal activity against Amaranthus retroflexus assessed as inhibition in green house at 1500 g/ha pre-emergence treatment measured after 15 days; type: functional; conditions: 360 h
Assay Metric: inhibition at 1500 g/ha (%)
One number for each entry, in %.

Worked cases, inhibition at 1500 g/ha given:
Cc1ccc(/C(O)=C2\C(=O)CN(C(C)C)C2=O)c(C)c1 = 13
COc1ccc(/C(O)=C2\C(=O)CN(C3CC3)C2=O)cc1OC = 0

Give measured inhibition at 1500 g/ha for every item shown.
1. O=C1CN(C2CC2)C(=O)/C1=C(\O)c1cccc(Oc2ccccc2)c1
2. CCOc1ccc(/C(O)=C2\C(=O)CN(C(C)C)C2=O)cc1

Result:
1. 0
2. 0

Please go through the list and note inhibition at 1500 g/ha for each molecule.
1. COc1ccccc1/C(O)=C1\C(=O)CN(C(C)C)C1=O
2. CCOc1ccc(/C(O)=C2\C(=O)CN(C3CC3)C2=O)cc1

Result:
1: 16; 2: 0

For every item in the list below, what is its measured inhibition at 1500 g/ha?
1. COc1ccc(/C(O)=C2\C(=O)CN(C(C)(C)C)C2=O)cc1
2. Cc1ccccc1/C(O)=C1\C(=O)CN(C(C)C)C1=O
3. COc1ccc(/C(O)=C2\C(=O)CN(C(C)C)C2=O)cc1
4. CC(C)N1CC(=O)/C(=C(/O)c2cccc(Oc3ccccc3)c2)C1=O
5. Cc1ccc(/C(O)=C2\C(=O)CN(C(C)C)C2=O)cc1
6. COc1ccc(/C(O)=C2\C(=O)CN(C3CC3)C2=O)cc1

Result:
1: 23; 2: 50; 3: 11; 4: 0; 5: 11; 6: 0

* * *

tested on: Echinochloa crus-galli; experiment: Herbicidal activity against Echinochloa crus-galli (barnyard grass) assessed as inhibition of seedling growth at 10 ug/ml at 28 +/- 1 degC measured after 65 hr by cup test; format: functional
Provide the recorded inhibition at 10 µg/mL for the entries that follow.
Give bare numbers, in %.

Some solved cases for reference:
COc1cc(/C(O)=C2\C(=O)CN(C(C)C)C2=O)cc(OC)c1OC = 0
CCCCCc1ccc(/C(O)=C2\C(=O)CN(C3CC3)C2=O)cc1 = 5
Cc1cc(C)cc(/C(O)=C2\C(=O)CN(C(C)(C)C)C2=O)c1 = 1
CCOc1ccc(/C(O)=C2\C(=O)CN(C(C)C)C2=O)cc1 = 79

Give me inhibition at 10 µg/mL for each of these molecules, listed below.
1. CC(C)N1CC(=O)/C(=C(/O)c2ccc(C(C)(C)C)cc2)C1=O
2. COc1cc(OC)c(/C(O)=C2\C(=O)CN(C(C)C)C2=O)cc1OC
3. Cc1ccc(/C(O)=C2\C(=O)CN(C(C)C)C2=O)c(C)c1
4. COc1ccc(/C(O)=C2\C(=O)CN(C(C)C)C2=O)cc1
5. O=C1CN(C2CC2)C(=O)/C1=C(\O)c1cccc(Oc2ccccc2)c1

Result:
1. 28
2. 0
3. 74
4. 80
5. 58

Count: 4. Required value per item: inhibition at 10 µg/mL.
1. COCCOCOc1ccc(/C(O)=C2\C(=O)CN(C3CC3)C2=O)cc1
2. CCOc1ccc(/C(O)=C2\C(=O)CN(C3CC3)C2=O)cc1
3. COc1ccc(/C(O)=C2\C(=O)CN(C(C)(C)C)C2=O)cc1OC
4. COc1cc(/C(O)=C2\C(=O)CN(C3CC3)C2=O)cc(OC)c1OC

Result:
1. 0
2. 78
3. 0
4. 4

Can you give me inhibition at 10 µg/mL for all of these, one by one?
1. COc1ccc(/C(O)=C2\C(=O)CN(C3CC3)C2=O)cc1
2. COc1ccc(/C(O)=C2\C(=O)CN(C(C)C)C2=O)c(OC)c1

Result:
1: 62; 2: 78

Below are some molecules; for each one, tell me its inhibition at 10 µg/mL.
1. COCCOCOc1ccccc1/C(O)=C1\C(=O)CN(C(C)C)C1=O
2. CC(C)N1CC(=O)/C(=C(/O)c2cccc(Oc3ccccc3)c2)C1=O

Result:
1. 17
2. 57

* * *

test system: Brassica rapa subsp. oleifera; assay: Herbicidal activity against Brassica rapa subsp. oleifera assessed as inhibition of root growth at 10 ug/ml at 28 +/- 1 degC measured after 65 hr by root test; type: functional
Assay Metric: inhibition at 10 µg/mL (%)
Numbers only, in %.

// solved cases for inhibition at 10 µg/mL follow
COc1ccccc1/C(O)=C1\C(=O)CN(C(C)C)C1=O = 3
CC(C)c1ccc(/C(O)=C2\C(=O)CN(C(C)C)C2=O)cc1 = 0
Cc1ccc(/C(O)=C2\C(=O)CN(C(C)C)C2=O)cc1 = 8
CCCc1ccc(/C(O)=C2\C(=O)CN(C3CC3)C2=O)cc1 = 0

Switching to the query record.
Request: Look up and report measured inhibition at 10 µg/mL for this entry: CCCCCc1ccc(/C(O)=C2\C(=O)CN(C(C)C)C2=O)cc1
Result: 14
